Each recorded value in this set is attributed to patent US20200138827A1.

# experimental.system: hSTING(HAQ) (Homo sapiens, UniProt Q86WV6, G230A/H232R/R293Q/R71H)
# Sequence (Q86WV6 whole entry R71H/G230A/H232R/R293Q): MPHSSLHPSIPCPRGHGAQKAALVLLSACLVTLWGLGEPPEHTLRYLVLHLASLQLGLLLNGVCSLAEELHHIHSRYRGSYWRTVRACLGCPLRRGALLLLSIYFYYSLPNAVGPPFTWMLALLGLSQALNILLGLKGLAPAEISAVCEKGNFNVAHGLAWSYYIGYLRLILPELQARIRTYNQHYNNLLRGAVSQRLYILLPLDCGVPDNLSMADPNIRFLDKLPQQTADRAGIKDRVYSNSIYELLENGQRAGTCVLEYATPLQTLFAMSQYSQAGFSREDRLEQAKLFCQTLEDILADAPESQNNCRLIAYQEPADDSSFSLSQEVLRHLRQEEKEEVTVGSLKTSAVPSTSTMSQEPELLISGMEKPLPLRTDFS
# assay.comment: Luciferase reporter assay in HEK293T-hSTING-Luciferase cells, HAQ polymorph
# test.context: 20 hr stimulation, read-out: HAQ activity (EC50 range)
pEC50: −log10 of the molar value.
readout.label: pEC50

Some entries whose results are on file:
Qu. Param item = Cc1cccc(CNC(=O)c2ccc3c(c2)N(Cc2c(F)cccc2Cl)C(=O)CS3)c1 [Example 37] ; retrieve measured pEC50.
Ans. < 5.00

Qu. // next record CC1Cc2ccc(C(=O)NCc3c(F)cc(F)cc3F)cc2N(Cc2cc(F)cc(F)c2)S1(=O)=O (stereo not drawn) [Example 285]
Ans. 5.00 to 6.00

Next:
Qu. Param item = O=C(NCc1cc2ccccc2o1)c1cnc2c(c1)N(Cc1c(F)cccc1Cl)C(=O)CS2 [Example 197] ; retrieve measured pEC50.
Ans. 5.00 to 6.00

---

Quick reference for pEC50 among some compounds
# experimental.system: WT/R232 STING protein (Homo sapiens, UniProt Q86WV6, H232R)
# Sequence (Q86WV6 whole entry H232R): as the sequence (Q86WV6 whole entry R71H/G230A/H232R/R293Q) above, with H71R, A230G, Q293R counted along it
# assay.comment: Luciferase reporter assay in HEK293T-hSTING-Luciferase cells, WT/R232
# test.context: 20 hr stimulation, read-out: R232 Activity (EC50 range)
pEC50: −log10 of the molar value.

Qu. Param item = O=C(NCc1ccco1)c1ccc2c(c1)N(C(=O)c1c(F)cccc1Cl)CCO2 ; retrieve measured pEC50.
Ans. < 5.00

Qu. // next record O=C(NCc1c(F)cc(F)cc1F)c1ccc2c(c1)N(Cc1ccncc1)C(=O)CS2
Ans. 5.00 to 6.00

Qu. // next record O=C(NCc1cc2ccccc2o1)c1ccc2c(n1)N(Cc1cc(F)cc(F)c1)C(=O)CC2
Ans. 5.00 to 6.00

Kindly consider the entry below.
Qu. Param item = Cc1ccc(CNC(=O)c2cnc3c(c2)N(Cc2cc(F)cc(F)c2)C(=O)C(C)(CO)S3)o1 (stereo not shown) ; retrieve measured pEC50.
Ans. < 5.00

---

# experimental.system: WT/R232 STING protein (Homo sapiens, UniProt Q86WV6, H232R)
# assay.comment: Luciferase reporter assay in HEK293T-hSTING-Luciferase cells, WT/R232
# test.context: 20 hr stimulation, read-out: R232 Activity (EC50 range)
Quick reference for EC50 among some compounds

Some entries whose results are on file:
Qu. Param item = Cc1ccc(CNC(=O)c2ccc3c(n2)N(Cc2cc(F)cc(F)c2)C(=O)C(C)S3)o1 (stereo not drawn) [Example 203] ; retrieve measured EC50.
Ans. 1 to 10 µM

Qu. // next record CC1(CO)Sc2ncc(C(=O)NCc3cc4ccccc4o3)cc2N(Cc2cc(F)cc(F)c2)C1=O (stereo not drawn)
Ans. > 10 µM

Qu. // next record O=C(NC1(c2ccccc2)CCCC1)c1ccc2c(c1)N(Cc1ccccc1)C(=O)CS2
Ans. > 10 µM

Qu. // next record O=C(NCc1c(F)cc(F)cc1F)c1ccc2c(c1)N(C(C(=O)O)c1ccccc1)C(=O)CS2 (stereo not drawn)
Ans. > 10 µM

Qu. // next record Cn1cccc1CNC(=O)c1ccc2c(c1)N(Cc1ccccc1)C(=O)CS2
Ans. > 10 µM

Next:
Qu. Param item = Cc1ccc(CNC(=O)c2cnc3c(c2)N(Cc2c(F)cccc2Cl)C(=O)CS3)o1 ; retrieve measured EC50.
Ans. 1 to 10 µM

Qu. // next record CC(NC(=O)c1ccc2c(c1)N(Cc1ccccc1)C(=O)CS2)c1ccc(S(C)(=O)=O)cc1 (stereo not drawn)
Ans. > 10 µM

Qu. // next record O=C(NCc1ccco1)c1ccc2c(c1)N(Cc1c(F)cccc1F)C(=O)CS2
Ans. 1 to 10 µM

Qu. // next record Cc1cccc(CNC(=O)c2ccc3c(c2)N(Cc2c(F)cccc2Cl)C(=O)CS3)c1
Ans. < 1 µM
